Tested on: Escherichia coli TOP10
protocol: shrunken log2 fold change of peptide-encoding DNA abundance (4.5 h post-induction vs induction); higher = less antimicrobial activity (less host growth inhibition)
assay context: time post-induction: 4.5 h; library: site-saturation at positions 5, 18, 19, 20
I'd be grateful if you could share measured shrunken log2 fold change for these entries.

residues	shrunken log2 fold change
RRIRVRPPRLPRPRPRPFVLPRP	-0.322
RRIRQRPPRLPRPRPRPKHYPRP	-0.223
RRIRTRPPRLPRPRPRPFSWPRP	-0.294

# query: shrunken log2 fold change | item RRIRCRPPRLPRPRPRPADDPRP | system: Escherichia coli TOP10
0.116

====

System: Escherichia coli TOP10
protocol: shrunken log2 fold change of peptide-encoding DNA abundance (4.5 h post-induction vs induction); higher = less antimicrobial activity (less host growth inhibition)
assay context: time post-induction: 4.5 h; library: site-saturation at positions 5, 18, 19, 20
Is shrunken log2 fold change at least -0.01? Then true (1). If not, false (0).

Worked set:
residues	class assignment
RRIRSRPPRLPRPRPRPSIRPRP	false (0)
RRIRERPPRLPRPRPRPVKVPRP	false (0)
RRIRDRPPRLPRPRPRPMERPRP	false (0)
RRIRNRPPRLPRPRPRPPCTPRP	false (0)
RRIRIRPPRLPRPRPRPVTSPRP	false (0)

Check if shrunken log2 fold change >= -0.01 (inclusive). Item: RRIRQRPPRLPRPRPRPCVYPRP
true (1)

hey, is shrunken log2 fold change for this one >= -0.01? RRIRDRPPRLPRPRPRPGRPPRP
true (1)

Is it the case that RRIRPRPPRLPRPRPRPAMRPRP has shrunken log2 fold change reaching or exceeding -0.01?
true (1)

Is shrunken log2 fold change for RRIRIRPPRLPRPRPRPKCQPRP at or above -0.01?
true (1)

# bool: shrunken log2 fold change of RRIRQRPPRLPRPRPRPPTLPRP >= -0.01
true (1)

Tell me whether shrunken log2 fold change is at least -0.01 here: RRIRERPPRLPRPRPRPIKLPRP
false (0)

Does RRIRCRPPRLPRPRPRPMEDPRP have a reported shrunken log2 fold change of at least -0.01?
false (0)

shrunken log2 fold change >= -0.01 for RRIRSRPPRLPRPRPRPCNYPRP ?
false (0)

API: above_or_equal(metric=shrunken log2 fold change, cutoff=-0.01) for item RRIRWRPPRLPRPRPRPKSRPRP
false (0)

Answer whether shrunken log2 fold change of RRIRLRPPRLPRPRPRPHYQPRP is greater than or equal to -0.01.
false (0)

Form field: shrunken log2 fold change at least -0.01? Entry: RRIRHRPPRLPRPRPRPYEAPRP
false (0)

Please indicate if the recorded shrunken log2 fold change for RRIRIRPPRLPRPRPRPSPVPRP meets or exceeds -0.01.
false (0)

Record RRIRKRPPRLPRPRPRPNRMPRP ; criterion: shrunken log2 fold change no lower than -0.01. Met?
true (1)

Hi, just wondering whether RRIRIRPPRLPRPRPRPFFFPRP shows shrunken log2 fold change of -0.01 or higher.
false (0)

Assess whether reported shrunken log2 fold change for RRIRFRPPRLPRPRPRPWKTPRP sits at -0.01 or higher.
false (0)

====

Would you kindly list shrunken log2 fold change for each of these sequences?
System: Escherichia coli TOP10;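 also: peptides expressed intracellularly from a pBAD plasmid library in pooled LB shake-flask culture, induced with 0.3% L-arabinose, DNA abundance read by NGS, three biological replicates, DESeq2 with apeglm shrinkage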
protocol: shrunken log2 fold change of peptide-encoding DNA abundance (4.5 h post-induction vs induction); higher = less antimicrobial activity (less host growth inhibition)
assay context: time post-induction: 4.5 h; library: site-saturation at positions 5, 18, 19, 20
Answers are plain numbers.

residues	study target	shrunken log2 fold change
RRIRARPPRLPRPRPRPHKGPRP	Escherichia coli TOP10	0.187

Give one value of shrunken log2 fold change per listed sequence.
1. RRIRKRPPRLPRPRPRPKELPRP
2. RRIRMRPPRLPRPRPRPFLPPRP
3. RRIRARPPRLPRPRPRPSKYPRP
4. RRIRGRPPRLPRPRPRPFYRPRP
5. RRIRLRPPRLPRPRPRPCGFPRP
6. RRIRCRPPRLPRPRPRPFFPPRP

[0.566, -0.346, -0.464, -0.26, -0.0181, -0.167]
